Biological target: SARS-CoV-2 nsp3-mac1 (Severe acute respiratory syndrome coronavirus 2, UniProt P0DTD1)
Assay: biochemical
Details: TR-FRET dose response, highest measured response
Reported perc_max_measured by item:
Unit % implied. Number only.

[
  {
    "molecule": "O=C(NCc1cc2n(n1)CCCC2)c1cc2cncnc2[nH]1 [ASAP-0000134]",
    "unit abbrev": "%",
    "perc_max_measured": 2.258
  },
  {
    "molecule": "OC[C@@H](Nc1ncnc2[nH]c(I)cc12)c1ccccc1 [ASAP-0000197]",
    "unit abbrev": "%",
    "perc_max_measured": 42.06
  },
  {
    "molecule": "O=C(Nc1ccccc1)Nc1ccc(C(=O)NC2c3cccc(O)c3CC2C(=O)O)cc1 (centres unmarked) [ASAP-0000132]",
    "unit abbrev": "%",
    "perc_max_measured": 99.438
  },
  {
    "molecule": "O=C(OCc1cccc(Cl)n1)c1ncnc2[nH]ccc12 [ASAP-0000193]",
    "unit abbrev": "%",
    "perc_max_measured": 38.614
  }
]

In the following, a different molecule is considered.
Task: Please give the measured perc_max_measured for this molecule: O=C(c1cccc(Br)c1)N1CCC(c2ccn3ncc(C(=O)N4CCCCC4)c3c2)CC1 [ASAP-0000191]
Output: 41.392

###

Reported perc_remaining by item:
Test: Hepatic microsomal stability, MLM
Format: in vitro ADME
Conditions: In vitro mouse liver microsomal stability
Unit % implied. Number only.

Sample answers from the record:
[
  {
    "compound": "CC(C)[C@@H](Nc1ncnc2[nH]c(-c3cnn(C)c3)cc12)c1ccc2c(c1)S(=O)(=O)CCC2 [ASAP-0008678]",
    "perc_remaining [%]": 7.0
  },
  {
    "compound": "CC(C)[C@@H](Nc1ncnc2[nH]c(-c3ccc4cncn4c3)cc12)c1ccc2c(c1)S(=O)(=O)CCC2",
    "perc_remaining [%]": 6.0
  },
  {
    "compound": "CCNC(=O)c1cc2c(N[C@H](c3ccc4c(c3)S(=O)(=O)CCC4)C(C)C)ncnc2[nH]1 (racemic) [ASAP-0008711]",
    "perc_remaining [%]": 21.0
  }
]

Task: Please give the measured perc_remaining for this compound: CC(C)[C@H](Nc1ncnc2[nH]c(-c3cnn(CC(N)=O)c3)cc12)c1ccc2c(c1)S(=O)(=O)CCC2 (single isomer, unassigned) [ASAP-0011428]
Output: 53.0

Task: Please give the measured perc_remaining for this compound: COc1ccc2c(c1)CCN(c1ncnc3[nH]ccc13)[C@H]2C(C)C (racemic)
Output: 1.0

Task: Please give the measured perc_remaining for this compound: CC(C)[C@@H](Nc1ncnc2[nH]c(-c3cnn(C)c3C#N)cc12)c1ccc2c(c1)OCCO2 (racemic) [ASAP-0008275]
Output: 3.0

Task: Please give the measured perc_remaining for this compound: `CCNC(=O)c1cc2c(N[C@@H](c3ccc4c(c3)S(=O)(=O)NCC4)C(C)C)ncnc2[nH]1`
Output: 49.0

###

Experiment: Hepatic microsomal stability, MLM
Format: in vitro ADME
Conditions: In vitro mouse liver microsomal stability, no cofactor
endpoint name: perc_remaining_no_cofactor (%)
Unit % implied. Number only.

Task: Please give the measured perc_remaining_no_cofactor for this compound: COCCNC(=O)c1c[nH]c2ncnc(N[C@H](c3ccc4c(c3)S(=O)(=O)CCC4)C(C)C)c12 (racemic) [ASAP-0008650]
Output: 99.0

Task: Please give the measured perc_remaining_no_cofactor for this compound: CNC(=O)c1c[nH]c2ncnc(N[C@H](c3ccc4c(c3)S(=O)(=O)CCC4)C(C)C)c12 (single isomer, unassigned) [ASAP-0011153]
Output: 99.0

Task: Please give the measured perc_remaining_no_cofactor for this compound: CC(C)[C@H](Nc1ncnc2[nH]c(-c3cnn(C)c3C#N)cc12)c1ccc2c(c1)OCCO2 [ASAP-0010980]
Output: 113.0

Task: Please give the measured perc_remaining_no_cofactor for this compound: CC(C)[C@@H](Nc1ncnc2[nH]c(-c3cnn(C)c3C#N)cc12)c1ccc2c(n1)OCCO2 [ASAP-0008418]
Output: 101.0

Task: Please give the measured perc_remaining_no_cofactor for this compound: C[C@H](C(=O)O)[C@@H](NC(=O)c1ncnc2[nH]ccc12)c1ccc(Br)cc1 [ASAP-0014722]
Output: 100.245

Task: Please give the measured perc_remaining_no_cofactor for this compound: CC(C(=O)O)C(NC(=O)c1ncnc2[nH]ccc12)c1ccc(Br)cc1 (mixture of isomers) [ASAP-0008445]
Output: 109.0

Task: Please give the measured perc_remaining_no_cofactor for this compound: CC(C)(C)[C@@H](Nc1ncnc2[nH]c(-c3cnn(CC(N)=O)c3)cc12)c1ccc2c(n1)OCCO2 [ASAP-0011162]
Output: 109.0
